Test system: Infectious HCV, Genotype 2a, JFH1
Assay Info: Small molecule inhibition of HCV infectivity (luciferase)
Type: cell-based, Hepatitis C virus
Protocol Conditions: Hepatitis C virus, read-out: Luciferase activity assay EC50
Excerpt: (5) Small molecule inhibition of HCV infectivity. To quantify the inhibitory effect of DBPR110 on HCV particle formation, HCV replication in DBPR110-treated and untreated cells was quantified using a luciferase activity assay, as described previously. See, e.g., Wakita et al., Nat Med 11:791-6 (2005); and Zhang et al., Antimicrob Agents Chemother 52:666-74 (2008). […]
Measurement Type: pEC50
Convention used: pEC50 is expressed as -log10 of the molar concentration.

Q) Reported pEC50 for O=C(N[C@@H](C(=O)N1CCC[C@H]1c1ncc(-c2ccc(-c3ccc(-c4cnc([C@@H]5CCCN5C(=O)[C@H](NC(=O)C5CC5)c5ccccc5)s4)cc3)cc2)s1)c1ccccc1)C1CC1 [DBPR110] : what is it?
A) 10.74

---

Tested on: HCV genotype 1b replicon (Con1)
Assay Info: Inhibitory assay for HCV replicons (luciferase), genotype 1b Con1
Type: cell-based, Hepatitis C virus
Protocol Conditions: Hepatitis C virus, HCV-1b replicon cell lines; single agent, combination study system; read-out: EC50
Measurement Type: EC50 (pM)
Entry rule: numbers only, all in pM.

Q) Tell me the measured EC50 of O=C(N[C@@H](C(=O)N1CCC[C@H]1c1ncc(-c2ccc(-c3ccc(-c4cnc([C@@H]5CCCN5C(=O)[C@H](NC(=O)C5CC5)c5ccccc5)s4)cc3)cc2)s1)c1ccccc1)C1CC1 , please.
A) 3.3

---

Tested on: genotype 2a HCV replicon with NS5A amino acid substitutions
Assay Info: Transient replicon assay, genotype 2a NS5A amino acid substitutions
Format: cell-based, Hepatitis C virus
Protocol Conditions: Hepatitis C virus, genotype 2a NS5A Y93H
Measurement Type: EC50 (µM)
Give a bare numeral; the unit µM is implied.

Q) What reported EC50 corresponds to O=C(N[C@@H](C(=O)N1CCC[C@H]1c1ncc(-c2ccc(-c3ccc(-c4cnc([C@@H]5CCCN5C(=O)[C@H](NC(=O)C5CC5)c5ccccc5)s4)cc3)cc2)s1)c1ccccc1)C1CC1 on genotype 2a HCV replicon with NS5A amino acid substitutions?
A) 0.76

---

Tested on: genotype 1b HCV replicon with NS5A amino acid substitutions
Assay Info: Transient replicon assay, genotype 1b NS5A amino acid substitutions
Assay type: cell-based, Hepatitis C virus
Protocol Conditions: Hepatitis C virus, genotype 1b NS5A P58S
Measurement Type: pEC50
The scale used: pEC50 is minus the common logarithm of the concentration in molar units.

Q) Dear colleague, I am looking for the recorded pEC50 of the following compound: O=C(N[C@@H](C(=O)N1CCC[C@H]1c1ncc(-c2ccc(-c3ccc(-c4cnc([C@@H]5CCCN5C(=O)[C@H](NC(=O)C5CC5)c5ccccc5)s4)cc3)cc2)s1)c1ccccc1)C1CC1
A) 10.42

---

Test system: HCV genotype 1b replicon (Con1)
Assay Info: Inhibitory assay for HCV replicons (luciferase), genotype 1b Con1
Type: cell-based, Hepatitis C virus
Protocol Conditions: Hepatitis C virus; HCV-1b replicon cell lines; single agent; read-out: EC90
Measurement Type: EC90 (µM)
Respond with the bare value in µM.

>  <Compound>
CC(C)(C)NC(=O)N[C@H](C(=O)N1C[C@H]2[C@@H]([C@H]1C(=O)NC(CC1CCC1)C(=O)C(N)=O)C2(C)C)C(C)(C)C (stereo partly shown) [Boceprevir, boceprevir, reference compound]

>  <EC90 / µM>
0.962

$$$$
>  <Compound>
NC(=O)c1ncn([C@@H]2O[C@H](CO)[C@@H](O)[C@H]2O)n1 [Ribavirin, ribavirin, reference compound]

>  <EC90 / µM>
95

$$$$
>  <Compound>
CC(C)OC(=O)[C@H](C)N[P@](=O)(OC[C@H]1O[C@@H](n2ccc(=O)[nH]c2=O)[C@](C)(F)[C@@H]1O)Oc1ccccc1 [Sofosbuvir, sofosbuvir, reference compound]

>  <EC90 / µM>
0.323

$$$$

Next compound, please.
Q) Find the recorded EC90 belonging to CCC[C@H](NC(=O)[C@@H]1[C@H]2CCC[C@H]2CN1C(=O)[C@@H](NC(=O)[C@@H](NC(=O)c1cnccn1)C1CCCCC1)C(C)(C)C)C(=O)C(=O)NC1CC1 [Telaprevir, telaprevir, reference compound] and report it.
A) 0.912

---

Assay Info: Cytotoxicity assay (MTT)
Type: cell-based
Protocol Conditions: human, HCV-1b replicon cell lines; single agent; read-out: CC50
Measurement Type: CC50 at 72 h

Observe how each entry below is paired with its result.
>  <Molecule>
CC(C)(C)NC(=O)N[C@H](C(=O)N1C[C@H]2[C@@H]([C@H]1C(=O)NC(CC1CCC1)C(=O)C(N)=O)C2(C)C)C(C)(C)C (stereo partly shown) [Boceprevir, boceprevir, reference compound]

>  <CC50 at 72 h>
> 5 µM

$$$$
>  <Molecule>
O=C(N[C@@H](C(=O)N1CCC[C@H]1c1ncc(-c2ccc(-c3ccc(-c4cnc([C@@H]5CCCN5C(=O)[C@H](NC(=O)C5CC5)c5ccccc5)s4)cc3)cc2)s1)c1ccccc1)C1CC1 [DBPR110]

>  <CC50 at 72 h>
> 0.05 µM

$$$$
>  <Molecule>
CC(C)OC(=O)[C@H](C)N[P@](=O)(OC[C@H]1O[C@@H](n2ccc(=O)[nH]c2=O)[C@](C)(F)[C@@H]1O)Oc1ccccc1 [Sofosbuvir, sofosbuvir, reference compound]

>  <CC50 at 72 h>
> 5 µM

$$$$

# input for lookup
Q) For CCC[C@H](NC(=O)[C@@H]1[C@H]2CCC[C@H]2CN1C(=O)[C@@H](NC(=O)[C@@H](NC(=O)c1cnccn1)C1CCCCC1)C(C)(C)C)C(=O)C(=O)NC1CC1 [Telaprevir, telaprevir, reference compound] , what is its reported CC50 at 72 h?
A) > 5 µM
